test system: Fibroblast; experiment: Multiplex assay against human fibroblast; format: toxicity, cell-based; conditions: 12 h, 1 µM, compound concentration 1 uM, replicate 1
endpoint name: Total Cell Count
Respond using a number only.

Sure, the documented Total Cell Count for "Cc1nn(C)c2nc(NNC(=O)Nc3cc(Cl)nc(Cl)c3)cc(C(C)C)c12" is 178

Sure, the documented Total Cell Count for COc1cc2nc(N3CCN(C(=O)c4ccco4)CC3)nc(N)c2cc1OC.Cl [PRAZOSIN HYDROCHLORIDE] is 174

Sure, the documented Total Cell Count for "Cc1c(Cc2ccc3ccccc3n2)c2cc(F)ccc2n1CC(=O)O" is 171

Sure, the documented Total Cell Count for "C[C@H](NC(=O)CNC(=O)c1cccc(Cl)c1)c1ccccc1" is 94

Sure, the documented Total Cell Count for "Cc1cc(=O)n(C)c2cc(N3C(=O)CC[C@H](NS(=O)(=O)CC(C)C)[C@H]3c3ccc(Cl)cc3)ccc12" is 135

Sure, the documented Total Cell Count for "Nc1nc(-c2ccco2)c2cnn(Cc3ccccc3F)c2n1" is 189

Sure, the documented Total Cell Count for "Cn1cc(C(=O)OCC2CCN(CCNS(C)(=O)=O)CC2)c2ccccc21" is 202

Sure, the documented Total Cell Count for CCn1c(-c2nc3cc(C(=O)N4CCCC(N)C4)ccc3n2C)cc2ccccc21.Cl (centres undefined) is 128

Sure, the documented Total Cell Count for "Cc1cc(NC(=O)NCCN2CCC(O)(Cc3ccccc3)CC2)c2ccccc2n1" is 133

---

system: U2OS; experiment: Multiplex assay against U2OS; type: toxicity, cell-based; conditions: human, 48 h, 10 µM, compound concentration 10 uM, replicate 2
endpoint name: Population Apoptotic (%)
Numbers only here, please. The scale is %.

Sure, the documented Population Apoptotic (%) for "CN1CCN(c2ccc(Nc3c4ccccc4nc4ccccc34)cc2)CC1.Cl.Cl.O" is 100

Sure, the documented Population Apoptotic (%) for "N[C@](CC1c2ccccc2Oc2ccccc21)(C(=O)O)[C@H]1C[C@@H]1C(=O)O" is 81

Sure, the documented Population Apoptotic (%) for O=C(O)CCC/C=C\CC1C(O)CC(O)C1/C=C/C(O)COc1cccc(Cl)c1 (stereo not given) [CLOPROSTENOL] is 84

Sure, the documented Population Apoptotic (%) for COCCCN1CCC(NC(=O)c2cc(Cl)c(N)c3c2OCC3)CC1 [PRUCALOPRIDE] is 90

Sure, the documented Population Apoptotic (%) for Cc1cc(NC(=O)NCCN2CCC(O)(Cc3ccccc3)CC2)c2ccccc2n1 [PALOSURAN] is 89

---

system: U2OS; experiment: Multiplex assay against U2OS; format: toxicity, cell-based; conditions: human, 12 h, 1 µM, compound concentration 1 uM, replicate 1
Assign Population Normal (%) to each entry below.
Numbers only here, please. The scale is %.

Test item CN(C)C/C=C/C(=O)Nc1ccc(C(=O)N2CCCC(Nc3ncc(Cl)c(-c4c[nH]c5ccccc45)n3)C2)cc1 (configuration not stated) ; U2OS; reported Population Normal (%) was 97

Test item Cc1ccc(OCC(O)C(C)NC(C)C)c2c1CCC2.Cl (configuration not stated) ; U2OS; reported Population Normal (%) was 97

Test item COc1cc(Nc2ncc3c(n2)-c2ccc(Cl)cc2C(c2c(F)cccc2OC)=NC3)ccc1C(=O)O [ALISERTIB] ; U2OS; reported Population Normal (%) was 98

Test item "COc1cc(OC2CCN(C(C)=O)CC2)ccc1C(=O)N1CCC(N2C(=O)OCc3ccccc32)CC1" ; U2OS; reported Population Normal (%) was 99

Test item CN1C[C@H](C(=O)N[C@]2(C)O[C@@]3(O)[C@@H]4CCCN4C(=O)[C@H](Cc4ccccc4)N3C2=O)C[C@@H]2c3cccc4[nH]cc(c34)C[C@H]21.CS(=O)(=O)O [DIHYDROERGOTAMINE MESYLATE] ; U2OS; reported Population Normal (%) was 98

Test item "CN(C)C(=O)Cn1cc(-c2ccc(-c3nnc4ccccn34)cc2)cn1" ; U2OS; reported Population Normal (%) was 98

Test item "COc1cc2nc(N3CCN(C(=O)COc4c(OC)cccc4C(C)C)CC3)nc(N)c2cc1OC.Cl.Cl" ; U2OS; reported Population Normal (%) was 96

Test item "COc1cc(C(=O)N2CC[C@@H](O)[C@@H](N)C2)cc2nc(-c3cc4ccccc4n3CC3CC3)n(C)c12.Cl" ; U2OS; reported Population Normal (%) was 95

Test item CSc1nc(NC2CCCC2)c([N+](=O)[O-])c(NC2CCCC2)n1 [GS-39783] ; U2OS; reported Population Normal (%) was 97

Test item "S=C(NCCCc1c[nH]cn1)NCCCN(Cc1ccc(Cl)c(Cl)c1)c1ccc(Br)cn1" ; U2OS; reported Population Normal (%) was 97

Test item CC(C)(C)c1ccc(CSc2cnn(C(C)(C)C)c(=O)c2Cl)cc1 [PYRIDABEN] ; U2OS; reported Population Normal (%) was 97

Test item O=C(NCCNCC(O)COc1ccc(O)cc1)N1CCOCC1.O=C(NCCNCC(O)COc1ccc(O)cc1)N1CCOCC1.O=C(O)/C=C/C(=O)O (configuration not stated) [XAMOTEROL FUMARATE] ; U2OS; reported Population Normal (%) was 97

Test item O=c1nc2[nH]c3ccccc3nc-2c(=O)[nH]1 [ALLOXAZINE] ; U2OS; reported Population Normal (%) was 97

Test item Cc1c(Cc2ccc3ccccc3n2)c2cc(F)ccc2n1CC(=O)O [TIMAPIPRANT] ; U2OS; reported Population Normal (%) was 97

Test item CCCCC[C@H](O)/C=C/[C@H]1[C@H](O)CC(=O)[C@@H]1CCCCCCC(=O)O [ALPROSTADIL] ; U2OS; reported Population Normal (%) was 98

Test item CN1CCN2c3ccccc3Cc3ccccc3C2C1.Cl (configuration not stated) [MIANSERIN HYDROCHLORIDE] ; U2OS; reported Population Normal (%) was 96

Test item "CN1CCN(c2ccc(Nc3c4ccccc4nc4ccccc34)cc2)CC1.Cl.Cl.O" ; U2OS; reported Population Normal (%) was 99

---

tested on: HEK-293T; assay: Multiplex assay against HEK293T; type: toxicity, cell-based; details: human, 48 h, 10 µM, compound concentration 10 uM, replicate 1
Assign Population Mitochondria Different-Phenotype (%) to each entry below.
Numbers only here, please. The scale is %.

Sure, the documented Population Mitochondria Different-Phenotype (%) for CCC(=O)OCC(=O)[C@@]1(OC(=O)CC)[C@@H](C)C[C@H]2[C@@H]3CCC4=CC(=O)C=C[C@]4(C)[C@@]3(Cl)[C@@H](O)C[C@@]21C [BECLOMETHASONE DIPROPIONATE] is 72

Sure, the documented Population Mitochondria Different-Phenotype (%) for "Nc1nc(CC(=O)Nc2ccc(CCNC[C@H](O)c3ccccc3)cc2)cs1" is 25

Sure, the documented Population Mitochondria Different-Phenotype (%) for O=C(O)CCC/C=C\CC1C(O)CC(O)C1/C=C/C(O)COc1cccc(Cl)c1 (centres undefined) is 32

Sure, the documented Population Mitochondria Different-Phenotype (%) for "COc1c(Nc2ccc(S(C)(=O)=O)nc2C)ncnc1OC1CCN(C(=O)OC(C)C)CC1" is 38

---

tested on: U2OS; experiment: Multiplex assay against U2OS; type: toxicity, cell-based; conditions: human, 48 h, 10 µM, compound concentration 10 uM, replicate 1
# label = class 1 if Population Mitotic Cells (%) < 10% else class 0

Query: Field: below-cutoff. Rule: recorded Population Mitotic Cells (%) strictly less than 10%. Subject: "CCc1nn2c(C)cc(C)nc2c1Cc1ccc(-c2nnc(C3CCNCC3)o2)cc1"
Response: class 0

Query: Field: below-cutoff. Rule: recorded Population Mitotic Cells (%) strictly less than 10%. Subject: "C=CCN1C[C@H](C(=O)N(CCCN(C)C)C(=O)NCC)C[C@@H]2c3cccc4[nH]cc(c34)C[C@H]21"
Response: class 0

Query: Field: below-cutoff. Rule: recorded Population Mitotic Cells (%) strictly less than 10%. Subject: "O=c1ccc2ccc(OCCCCN3CCN(c4cccc5sccc45)CC3)cc2[nH]1"
Response: class 1

Query: Field: below-cutoff. Rule: recorded Population Mitotic Cells (%) strictly less than 10%. Subject: "Cc1cc(=O)n(C)c2cc(N3C(=O)CC[C@H](NS(=O)(=O)CC(C)C)[C@H]3c3ccc(Cl)cc3)ccc12"
Response: class 0

Query: Field: below-cutoff. Rule: recorded Population Mitotic Cells (%) strictly less than 10%. Subject: Cl.Cl.OCCOCCN1CCN(C(c2ccccc2)c2ccc(Cl)cc2)CC1 (stereo not drawn) [HYDROXYZINE HYDROCHLORIDE]
Response: class 0

Query: Field: below-cutoff. Rule: recorded Population Mitotic Cells (%) strictly less than 10%. Subject: "C[C@@H]1CC(=O)Nc2cccc(-c3ccc4c(c3)c(-c3cnn(C)c3)nn4C)c2N1"
Response: class 1

Query: Field: below-cutoff. Rule: recorded Population Mitotic Cells (%) strictly less than 10%. Subject: "CN1CCN(c2ccc(Nc3c4ccccc4nc4ccccc34)cc2)CC1.Cl.Cl.O"
Response: class 1

Query: Field: below-cutoff. Rule: recorded Population Mitotic Cells (%) strictly less than 10%. Subject: "OCCCNc1cc(-c2ccnc(Nc3cccc(Cl)c3)n2)ccn1"
Response: class 1

Query: Field: below-cutoff. Rule: recorded Population Mitotic Cells (%) strictly less than 10%. Subject: "O=C(Nc1cc(-c2ccccc2)nn1-c1ccccc1F)c1ccc([N+](=O)[O-])cc1"
Response: class 0

Query: Field: below-cutoff. Rule: recorded Population Mitotic Cells (%) strictly less than 10%. Subject: "COc1ccc2[nH]c(I)c(CCNC(C)=O)c2c1"
Response: class 1

Query: Field: below-cutoff. Rule: recorded Population Mitotic Cells (%) strictly less than 10%. Subject: "C[C@H](NC(=O)CNC(=O)c1cccc(Cl)c1)c1ccccc1"
Response: class 0

Query: Field: below-cutoff. Rule: recorded Population Mitotic Cells (%) strictly less than 10%. Subject: "Cc1nn(C)c2nc(NNC(=O)Nc3cc(Cl)nc(Cl)c3)cc(C(C)C)c12"
Response: class 0

Query: Field: below-cutoff. Rule: recorded Population Mitotic Cells (%) strictly less than 10%. Subject: "COc1ccc2c(c1OCc1ccccc1)C[C@@H](C(=O)O)N(C(=O)C(c1ccccc1)c1ccccc1)C2"
Response: class 0

Query: Field: below-cutoff. Rule: recorded Population Mitotic Cells (%) strictly less than 10%. Subject: "COc1cc(OC2CCN(C(C)=O)CC2)ccc1C(=O)N1CCC(N2C(=O)OCc3ccccc32)CC1"
Response: class 0

Query: Field: below-cutoff. Rule: recorded Population Mitotic Cells (%) strictly less than 10%. Subject: "O=c1nc2[nH]c3ccccc3nc-2c(=O)[nH]1"
Response: class 1

Query: Field: below-cutoff. Rule: recorded Population Mitotic Cells (%) strictly less than 10%. Subject: "CN(C)C(=O)Cn1cc(-c2ccc(-c3nnc4ccccn34)cc2)cn1"
Response: class 1

Query: Field: below-cutoff. Rule: recorded Population Mitotic Cells (%) strictly less than 10%. Subject: CN(C)C/C=C/C(=O)Nc1ccc(C(=O)N2CCCC(Nc3ncc(Cl)c(-c4c[nH]c5ccccc45)n3)C2)cc1 (stereo not drawn)
Response: class 1

Numbers sourced from ChEMBL document CHEMBL5058577.
